All values here come from ChEMBL document CHEMBL1132181.

- Test system: Pneumocystis carinii
- EXPERIMENTAL PROTOCOL: The compound was tested in vivo against Pneumocystis carinii pneumonia (PCP) in the immunosuppressed rat model at oral dose of 33.0(umol/kg/day)
- Format: functional
Each item that follows carries a reported Control.
Report only the number, with the unit % understood.

{"MOLECULE": "CC(=O)OC(C)OC(=O)NC(=N)c1ccc(-c2ccc(-c3ccc(C(=N)NC(=O)OC(C)OC(C)=O)cc3)o2)cc1 (centres undefined)", "READOUT UNITS": "%", "Control": 57.16}

IN: Note Control for the molecule shown: "Cc1oc(=O)oc1COC(=O)NC(=N)c1ccc(-c2ccc(-c3ccc(C(=N)NC(=O)OCc4oc(=O)oc4C)cc3)o2)cc1"
OUT: 18.73

IN: Tell me Control reported for "CCSC(=O)NC(=N)c1ccc(-c2ccc(-c3ccc(C(=N)NC(=O)SCC)cc3)o2)cc1"
OUT: 19.52

IN: Identify Control associated with the molecule "N=C(NC(=O)OCc1ccccc1)c1ccc(-c2ccc(-c3ccc(C(=N)NC(=O)OCc4ccccc4)cc3)o2)cc1"
OUT: 18.09

###

- System: Rattus norvegicus
- EXPERIMENTAL PROTOCOL: Toxicity is evaluated according to a five-level scale ranging from 0 to 5+ at the specified iv dose of 22.0 (umol/kg/day)
- Assay type: organism-based
- APPLIED CONDITIONS: in vivo
ASSAY ENDPOINT: Toxicity
Write no unit; give the number alone.

# annotated cases, reported Toxicity shown
{"ENTRY SMILES": "CCSC(=O)NC(=N)c1ccc(-c2ccc(-c3ccc(C(=N)NC(=O)SCC)cc3)o2)cc1", "Toxicity": 0}
{"ENTRY SMILES": "Cc1oc(=O)oc1COC(=O)NC(=N)c1ccc(-c2ccc(-c3ccc(C(=N)NC(=O)OCc4oc(=O)oc4C)cc3)o2)cc1", "Toxicity": 0}

Now for another entry.
IN: Check the records and state Toxicity for "N=C(NC(=O)Oc1ccccc1)c1ccc(-c2ccc(-c3ccc(C(=N)NC(=O)Oc4ccccc4)cc3)o2)cc1"
OUT: 0

###

# Control per record follows
- Tested on: Pneumocystis carinii
- EXPERIMENTAL PROTOCOL: The compound was tested in vivo against Pneumocystis carinii pneumonia (PCP) in the immunosuppressed rat model at oral dose of 33.0(umol/kg/day)
- Type: functional
Please state the figure in %; there is no need to write the unit.

IN: Read the entry "COC(=O)NC(=N)c1ccc(-c2ccc(-c3ccc(C(=N)NC(=O)OC)cc3)o2)cc1" and write its reported Control.
OUT: 49.68

IN: Identify the reported Control for the following entry. "N=C(NC(=O)Oc1ccccc1)c1ccc(-c2ccc(-c3ccc(C(=N)NC(=O)Oc4ccccc4)cc3)o2)cc1"
OUT: 5.7

IN: Return value of Control for input "COc1ccc(OC(=O)NC(=N)c2ccc(-c3ccc(-c4ccc(C(=N)NC(=O)Oc5ccc(OC)cc5)cc4)o3)cc2)cc1" , no commentary.
OUT: 2.1

IN: Look up and report measured Control for this entry: "N/C(=N\C(=O)OCC(Cl)(Cl)Cl)c1ccc(-c2ccc(-c3ccc(/C(N)=N\C(=O)OCC(Cl)(Cl)Cl)cc3)o2)cc1"
OUT: 8.59

IN: Answer with reported Control of "CCOC(=O)ONC(=N)c1ccc(-c2ccc(-c3ccc(C(=N)NOC(=O)OCC)cc3)o2)cc1"
OUT: 96.9

IN: # return recorded Control for input "N=C(NC(=O)Oc1ccc(F)cc1)c1ccc(-c2ccc(-c3ccc(C(=N)NC(=O)Oc4ccc(F)cc4)cc3)o2)cc1"
OUT: 2.21
